MEASUREMENT DESCRIPTION: Pharmacokinetic screening in rats, brain and plasma concentrations at 6 hour time point
Assay type: in vivo
RUN PARAMETERS: male, Sprague Dawley, plasma; rat, 5 mg/kg oral (PO), 2% Tween 80 in distilled water, 6 hour time point; read-out: Plasma concentration
Structures can show the parent of a compound that is named as a salt.
concentration at 6 h overview
Number in ng/mL, nothing else.

>>> assay_value("CCCCc1nc(-c2ccc(OC[C@@H](O)CN(C)C)cc2)cn1-c1ccc(Oc2ccc(Cl)cc2)cc1 [Example 3, dihydrochloride]")
48

Q: Recorded concentration at 6 h of CCCCc1nc(-c2ccc(OC[C@H](O)CN(C)C)cc2)cn1-c1ccc(Oc2ccc(Cl)cc2)cc1 [Example 1, dihydrochloride] , please.
Ans: 18

Q: Recorded concentration at 6 h of CCCCc1nc(-c2ccc(OC[C@@H](O)CNC)cc2)cn1-c1ccc(Oc2ccc(Cl)cc2)cc1 [Example 10, dihydrochloride] , please.
Ans: 74

Q: Recorded concentration at 6 h of CCOCc1nc(-c2ccc(OC[C@@H](O)CN(C)C)cc2)cn1-c1ccc(Oc2ccc(Cl)cc2)cc1 [Example 6, dihydrochloride] , please.
Ans: 155

Q: Recorded concentration at 6 h of CCCCc1nc(-c2ccc(OC[C@H](O)CNCC)cc2)cn1-c1ccc(Oc2ccc(Cl)cc2)cc1 [Example 11, dihydrochloride] , please.
Ans: 72

Q: Recorded concentration at 6 h of CCCCc1nc(-c2ccc(OC[C@@H](O)CNCC)cc2)cn1-c1ccc(Oc2ccc(Cl)cc2)cc1 [Example 12, dihydrochloride] , please.
Ans: 124

* * *

TARGET OF ASSAY: RAGE (sRAGE) with β-amyloid as the RAGE ligand (Homo sapiens, UniProt Q15109)
Sequence (Q15109 23-342 limits assumed): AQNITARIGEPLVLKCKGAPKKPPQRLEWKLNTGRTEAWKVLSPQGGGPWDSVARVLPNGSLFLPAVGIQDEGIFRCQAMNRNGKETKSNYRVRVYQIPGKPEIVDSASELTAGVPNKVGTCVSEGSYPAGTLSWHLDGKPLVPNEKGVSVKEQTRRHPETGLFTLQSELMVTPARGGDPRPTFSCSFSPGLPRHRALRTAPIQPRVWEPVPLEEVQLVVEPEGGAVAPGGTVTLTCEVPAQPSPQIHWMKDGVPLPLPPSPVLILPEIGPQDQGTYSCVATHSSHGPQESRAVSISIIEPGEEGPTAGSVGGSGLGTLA
Counter-ions that a name gives are not always drawn.
VALUE TYPE: IC50 (nM)
Number in nM, nothing else.

Known IC50 results, listed for orientation:
>>> assay_value("CCCCc1nc(-c2ccc(OC[C@H](O)CN(C)C)cc2)cn1-c1ccc(Oc2ccc(Cl)cc2)cc1 [Example 1, dihydrochloride]")
850
>>> assay_value("CCOCc1nc(-c2ccc(OC[C@@H](O)CN(C)C)cc2)cn1-c1ccc(Oc2ccc(Cl)cc2)cc1 [Example 6, dihydrochloride]")
780

// next entry
Q: Recorded IC50 of CCCCc1nc(-c2ccc(OC[C@@H](O)CNC)cc2)cn1-c1ccc(Oc2ccc(Cl)cc2)cc1 [Example 10, dihydrochloride] , please.
Ans: 1320

* * *

MEASUREMENT DESCRIPTION: Pharmacokinetic screening in rats, brain and plasma concentrations at 6 hour time point
Type: in vivo
RUN PARAMETERS: male, Sprague Dawley; brain/plasma ratio, rat, 5 mg/kg oral (PO), 6 hour time point; read-out: B/P Ratio
Where a name gives a salt, the structure may show the parent alone.
VALUE TYPE: Kp at 6 h
Would you mind answering with just the numeric figure?

>>> assay_value("CCCCc1nc(-c2ccc(OC[C@H](O)CNCC)cc2)cn1-c1ccc(Oc2ccc(Cl)cc2)cc1 [Example 11, dihydrochloride]")
4.8

Q: Recorded Kp at 6 h of CCOCc1nc(-c2ccc(OC[C@H](O)CN(C)C)cc2)cn1-c1ccc(Oc2ccc(Cl)cc2)cc1 [Example 5, dihydrochloride] , please.
Ans: 16.7

Q: Recorded Kp at 6 h of CCCCc1nc(-c2ccc(OC[C@@H](O)CN(C)C)cc2)cn1-c1ccc(Oc2ccc(Cl)cc2)cc1 [Example 3, dihydrochloride] , please.
Ans: 23.3

* * *

MEASUREMENT DESCRIPTION: Pharmacokinetic screening in rats, brain and plasma concentrations at 6 hour time point
Type: in vivo
RUN PARAMETERS: male, Sprague Dawley, brain; rat, 5 mg/kg oral (PO), 2% Tween 80 in distilled water, 6 hour time point; read-out: Brain concentration
Where a name gives a salt, the structure may show the parent alone.
VALUE TYPE: concentration at 6 h

Known concentration at 6 h results, listed for orientation:
>>> assay_value("CCCCc1nc(-c2ccc(OC[C@H](O)CNC)cc2)cn1-c1ccc(Oc2ccc(Cl)cc2)cc1 [Example 9, dihydrochloride]")
"537 ng/g"
>>> assay_value("CCCCc1nc(-c2ccc(OC[C@H](O)CNCC)cc2)cn1-c1ccc(Oc2ccc(Cl)cc2)cc1 [Example 11, dihydrochloride]")
"343 ng/g"
>>> assay_value("CCCCc1nc(-c2ccc(OC[C@H](O)CN(CC)CC)cc2)cn1-c1ccc(Oc2ccc(Cl)cc2)cc1 [Example 2, dihydrochloride]")
"718 ng/g"
>>> assay_value("CCCCc1nc(-c2ccc(OC[C@@H](O)CNC)cc2)cn1-c1ccc(Oc2ccc(Cl)cc2)cc1 [Example 10, dihydrochloride]")
"212 ng/g"
>>> assay_value("CCCCc1nc(-c2ccc(OC[C@@H](O)CN(CC)CC)cc2)cn1-c1ccc(Oc2ccc(Cl)cc2)cc1 [Example 4, dihydrochloride]")
"610 ng/g"

// next entry
Q: Recorded concentration at 6 h of CCCCc1nc(-c2ccc(OC[C@H](O)CN(C)C)cc2)cn1-c1ccc(Oc2ccc(Cl)cc2)cc1 [Example 1, dihydrochloride] , please.
Ans: 626 ng/g

* * *

MEASUREMENT DESCRIPTION: Pharmacokinetic screening in rats, brain and plasma concentrations at 6 hour time point
Format: in vivo
RUN PARAMETERS: male, Sprague Dawley; brain/plasma ratio, rat, 5 mg/kg oral (PO), 6 hour time point; read-out: B/P Ratio
Experimental: Pharmacokinetic screening in rats was performed on various compounds to measure brain and plasma concentrations at 6 hour time point. The parameters for the pharmacokinetic protocol were as follows. Amount of compound: 5 mg/kg Species: Rat; Strain: Sprague Dawley; Sex: Male Average body weight at dose: weight ranged from 271 to 423 grams […] Each formulation was administered once by oral gavage. […] The actual volume administered to each animal was calculated and adjusted based on the most recent body weight. […]
Where a name gives a salt, the structure may show the parent alone.
VALUE TYPE: Kp at 6 h
Would you mind answering with just the numeric figure?

>>> assay_value("CCCCc1nc(-c2ccc(OC[C@@H](O)CN(CC)CC)cc2)cn1-c1ccc(Oc2ccc(Cl)cc2)cc1 [Example 4, dihydrochloride]")
8.8
>>> assay_value("CCOCc1nc(-c2ccc(OC[C@@H](O)CN(CC)CC)cc2)cn1-c1ccc(Oc2ccc(Cl)cc2)cc1 [Example 8, dihydrochloride]")
19.6

// next entry
Q: Recorded Kp at 6 h of CCCCc1nc(-c2ccc(OC[C@@H](O)CNCC)cc2)cn1-c1ccc(Oc2ccc(Cl)cc2)cc1 [Example 12, dihydrochloride] , please.
Ans: 4.5

* * *

Counter-ions that a name gives are not always drawn.
Below are pIC50 values recorded for UniProt Q15109.
Please note pIC50 is a logarithmic value: minus log10 of concentration in mol/L. Answer with that number alone.

Known pIC50 results, listed for orientation:
>>> assay_value("CCOCc1nc(-c2ccc(OC[C@H](O)CN(CC)CC)cc2)cn1-c1ccc(Oc2ccc(Cl)cc2)cc1 [Example 7, dihydrochloride]")
5.93
>>> assay_value("CCNC[C@H](O)COc1ccc(-c2cn(-c3ccc(Oc4ccc(Cl)cc4)cc3)c(COCC)n2)cc1 [Example 16, dihydrochloride]")
5.81

Q: Recorded pIC50 of CCCCc1nc(-c2ccc(OC[C@@H](O)CN(CC)CC)cc2)cn1-c1ccc(Oc2ccc(Cl)cc2)cc1 [Example 4, dihydrochloride] , please.
Ans: 6.19

* * *

Kp at 6 h overview
MEASUREMENT DESCRIPTION: Pharmacokinetic screening in rats, brain and plasma concentrations at 6 hour time point
Format: in vivo
RUN PARAMETERS: male, Sprague Dawley; brain/plasma ratio, rat, 5 mg/kg oral (PO), 6 hour time point; read-out: B/P Ratio
Counter-ions that a name gives are not always drawn.
Would you mind answering with just the numeric figure?

Q: Recorded Kp at 6 h of CCCCc1nc(-c2ccc(OC[C@H](O)CN(CC)CC)cc2)cn1-c1ccc(Oc2ccc(Cl)cc2)cc1 [Example 2, dihydrochloride] , please.
Ans: 30.6

Q: Recorded Kp at 6 h of CCCCc1nc(-c2ccc(OC[C@H](O)CN(C)C)cc2)cn1-c1ccc(Oc2ccc(Cl)cc2)cc1 [Example 1, dihydrochloride] , please.
Ans: 34.1

* * *

Structures can show the parent of a compound that is named as a salt.
Below are pIC50 values recorded for RAGE (sRAGE) with S100b as the RAGE ligand (Homo sapiens).
Please note pIC50 is a logarithmic value: minus log10 of concentration in mol/L. Answer with that number alone.

Known pIC50 results, listed for orientation:
>>> assay_value("CCCCc1nc(-c2ccc(OC[C@H](O)CN(C)C)cc2)cn1-c1ccc(Oc2ccc(Cl)cc2)cc1 [Example 1, dihydrochloride]")
6.18
>>> assay_value("CCCCc1nc(-c2ccc(OC[C@H](O)CN(CC)CC)cc2)cn1-c1ccc(Oc2ccc(Cl)cc2)cc1 [Example 2, dihydrochloride]")
6.26
>>> assay_value("CCOCc1nc(-c2ccc(OC[C@@H](O)CNC)cc2)cn1-c1ccc(Oc2ccc(Cl)cc2)cc1 [Example 14, dihydrochloride]")
5.34

// next entry
Q: Recorded pIC50 of CCOCc1nc(-c2ccc(OC[C@H](O)CNC)cc2)cn1-c1ccc(Oc2ccc(Cl)cc2)cc1 [Example 13, dihydrochloride] , please.
Ans: 5.34
